# protocol details: in vivo
# recorded conditions: rat
reported property: half-life
Quick note: number first, unit second.

* CS(=O)(=O)c1ccccc1C(=O)NCC(O)CNC1CCN(Cc2ccc(Cl)c(Cl)c2)CC1 (configuration not stated) | 2.3 h

Would you kindly look at the next entry?
Qu. Quick one: half-life for COc1cc(C(=O)NC[C@@H](O)CN2CCC(Oc3ccc(Cl)c(Cl)c3)CC2)ccc1N ?
Ans. 6.5 h

* * *

# protocol details: in vitro
# recorded conditions: human, microsomes
reported property: microsomal CLint (µL/min/mg)
Value expressed in µL/min/mg; do not type the unit.

Qu. Quick one: microsomal CLint for N#Cc1cccc(C(=O)NC[C@@H](O)CN2CCC(Oc3ccc(Cl)c(Cl)c3)CC2)c1 ?
Ans. 4

Reference source: ChEMBL document CHEMBL2202969
